Reference source: paper PMC9516332

Target: panel of 255 wild-type kinases (Homo sapiens, UniProt P52333)
Sequence (P52333 whole entry): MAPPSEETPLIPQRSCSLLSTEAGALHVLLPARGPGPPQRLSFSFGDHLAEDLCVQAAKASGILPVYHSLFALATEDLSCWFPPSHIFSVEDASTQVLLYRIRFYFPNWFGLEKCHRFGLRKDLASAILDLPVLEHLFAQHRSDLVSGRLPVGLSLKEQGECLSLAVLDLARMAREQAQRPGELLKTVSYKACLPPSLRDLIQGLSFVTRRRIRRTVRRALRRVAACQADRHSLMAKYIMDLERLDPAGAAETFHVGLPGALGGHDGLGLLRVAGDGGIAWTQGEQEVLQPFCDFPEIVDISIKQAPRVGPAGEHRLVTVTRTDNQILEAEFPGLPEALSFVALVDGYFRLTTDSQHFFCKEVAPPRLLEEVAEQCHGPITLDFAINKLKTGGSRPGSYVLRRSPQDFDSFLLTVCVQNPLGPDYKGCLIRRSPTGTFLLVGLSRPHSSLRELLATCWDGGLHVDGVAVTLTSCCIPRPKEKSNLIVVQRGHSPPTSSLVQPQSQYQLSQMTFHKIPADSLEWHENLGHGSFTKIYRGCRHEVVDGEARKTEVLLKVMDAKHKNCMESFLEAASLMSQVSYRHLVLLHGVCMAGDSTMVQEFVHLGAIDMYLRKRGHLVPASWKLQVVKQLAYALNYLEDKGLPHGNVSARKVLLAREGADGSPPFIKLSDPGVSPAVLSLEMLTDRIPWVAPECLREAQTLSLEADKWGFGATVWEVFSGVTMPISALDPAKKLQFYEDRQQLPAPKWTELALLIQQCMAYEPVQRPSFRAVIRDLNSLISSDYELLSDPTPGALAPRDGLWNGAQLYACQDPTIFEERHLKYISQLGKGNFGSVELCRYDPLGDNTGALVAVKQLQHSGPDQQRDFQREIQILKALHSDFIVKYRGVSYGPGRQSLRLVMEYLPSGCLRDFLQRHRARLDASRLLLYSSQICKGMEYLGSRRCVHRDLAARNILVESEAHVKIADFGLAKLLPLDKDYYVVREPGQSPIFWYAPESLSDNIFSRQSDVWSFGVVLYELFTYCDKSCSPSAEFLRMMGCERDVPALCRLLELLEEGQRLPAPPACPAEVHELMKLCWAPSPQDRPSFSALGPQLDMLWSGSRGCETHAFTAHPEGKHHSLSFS
Experiment: Kinase panel profiling at 1 µmol/L (MSA or IMAP), percentage inhibition
Type: biochemical
Settings: kinase JAK3; 1 µmol/L single concentration; read-out: %-inhibition at 1 µmol/L, JAK3
metric name: inhibition at 1 µM (%)
// units = %; emit number, no label

input: Identify measured inhibition at 1 µM corresponding to Cn1cnc2c(F)c(Nc3ccc(Br)cc3F)c(C(=O)NOCCO)cc21
output: -0.365

input: Identify measured inhibition at 1 µM corresponding to CO[C@]1(C(=O)N[C@@H](C)c2ccc(-n3cc(F)cn3)nc2)CC[C@H](c2nc(C)cc(Nc3cc(C)[nH]n3)n2)CC1
output: 96

input: Identify measured inhibition at 1 µM corresponding to FC(F)(F)c1ccc(CNc2ccc(Cc3c[nH]c4ncc(Cl)cc34)cn2)cn1
output: 40

input: Identify measured inhibition at 1 µM corresponding to COc1cc2ncnc(Nc3ccc(F)c(Cl)c3)c2cc1NC(=O)/C=C/CN1CCCCC1
output: 28

input: Identify measured inhibition at 1 µM corresponding to CN1CCN(c2ccc(C(=O)Nc3n[nH]c4ccc(Cc5cc(F)cc(F)c5)cc34)c(NC3CCOCC3)c2)CC1
output: 97

input: Identify measured inhibition at 1 µM corresponding to C[C@H]1Oc2cc(cnc2N)-c2c(nn(C)c2C#N)CN(C)C(=O)c2ccc(F)cc21
output: 6.62

input: Identify measured inhibition at 1 µM corresponding to Cn1cc(-c2cc3c(N4CCN(c5ncc([C@@](C)(N)c6ccc(F)cc6)cn5)CC4)ncnn3c2)cn1
output: 64

input: Identify measured inhibition at 1 µM corresponding to CCc1nc(C(N)=O)c(Nc2ccc(N3CCC(N4CCN(C)CC4)CC3)c(OC)c2)nc1NC1CCOCC1
output: 91

input: Identify measured inhibition at 1 µM corresponding to C[C@H](Nc1ncnc2nc[nH]c12)c1cc2cccc(Cl)c2c(=O)n1-c1ccccc1
output: 3

input: Identify measured inhibition at 1 µM corresponding to COC(=O)N[C@@H](C)CNc1nccc(-c2cn(C(C)C)nc2-c2cc(Cl)cc(NS(C)(=O)=O)c2F)n1
output: 2.28

input: Identify measured inhibition at 1 µM corresponding to CCN1CCN(c2ccc(Nc3cc(N(C)C(=O)Nc4c(Cl)c(OC)cc(OC)c4Cl)ncn3)cc2)CC1
output: 7

input: Identify measured inhibition at 1 µM corresponding to Cc1nc(NC(=O)N2CCC[C@H]2C(N)=O)sc1-c1ccnc(C(C)(C)C(F)(F)F)c1
output: 0.447

input: Identify measured inhibition at 1 µM corresponding to Cc1cc(Nc2ncnc3ccc(NC4=NC(C)(C)CO4)cc23)ccc1Oc1ccn2ncnc2c1
output: 4.65

input: Identify measured inhibition at 1 µM corresponding to O=C(Nc1cnn2ccc(N3CCC[C@@H]3c3cc(F)ccc3F)nc12)N1CC[C@H](O)C1
output: 6

input: Identify measured inhibition at 1 µM corresponding to CCn1c(=O)c(-c2cc(NC(=O)Nc3ccccc3)c(F)cc2Br)cc2cnc(NC)cc21
output: 7

input: Identify measured inhibition at 1 µM corresponding to COc1ccc(CN2C3CC2CN(c2ccc(-c4cc(OCC(C)(C)O)cn5ncc(C#N)c45)cn2)C3)cn1
output: 27

input: Identify measured inhibition at 1 µM corresponding to CCN1C(=O)N(c2c(F)c(OC)cc(OC)c2F)Cc2cnc3[nH]c(CN4CCOCC4)cc3c21
output: 0.2

input: Identify measured inhibition at 1 µM corresponding to Cn1cnc2c(F)c(Nc3ccc(Br)cc3Cl)c(C(=O)NOCCO)cc21
output: 6
